- MEASURED_ON: phosphorylated VEGF-R2Δ50 (Homo sapiens, UniProt P35968, DEL940-989/E990V)
- Construct: VEGF-R2Δ50 contains residues 806-939 and 990-1171; made in house; host or cells: baculovirus/insect cells
- Sequence (P35968 with tags, fused parts or gaps DEL940-989/E990V limits assumed): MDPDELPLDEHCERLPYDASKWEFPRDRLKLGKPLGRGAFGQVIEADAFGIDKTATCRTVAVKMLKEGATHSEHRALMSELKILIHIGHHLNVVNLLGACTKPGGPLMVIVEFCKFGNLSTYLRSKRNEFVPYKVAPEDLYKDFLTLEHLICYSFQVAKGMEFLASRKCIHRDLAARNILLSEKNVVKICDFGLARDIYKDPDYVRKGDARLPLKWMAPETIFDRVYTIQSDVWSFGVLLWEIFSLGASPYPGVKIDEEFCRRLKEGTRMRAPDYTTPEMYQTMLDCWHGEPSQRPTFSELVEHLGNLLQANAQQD
- ASSAY_NOTES: VEGF-R2 ELISA assay
- Format: biochemical
- DETAILS: Table 2; * determined with ELISA assay; read-out: FLVK-P Ki
pKi: −log10 of the molar value.
MEASURE_NAME: pKi

[1] COc1cc(Nc2nc(N)c(C3=NC(c4ccccc4Br)CO3)s2)cc(OC)c1OC (racemic)
[2] COc1cc(Nc2nc(N)c(-c3ccccn3)s2)cc(OC)c1OC
[3] Cc1ccc(-c2csc(-c3sc(Nc4ccc(S(N)(=O)=O)cc4)nc3N)n2)cc1
[4] COc1cc(Nc2nc(N)c(-c3nc(-c4cccc(C(=O)Nc5ccc6nc(C)ccc6c5)c4)cs3)s2)cc(OC)c1OC
List the molecules shown above again, sorted by falling pKi values. // format: requested-order list of labels
1, 3, 2, 4
(1: 5.90, 3: 5.26, 2: 4.24, 4: 3.41)
